test: Plasma, brain and CSF pharmacokinetics and brain tissue accumulation in mice (LC-MS/MS); type: in vivo, male C57BL/6 mice; conditions: male, C57BL/6, mouse; oral gavage 5 mg/kg; Brain; read-out: C0/Cmax
READOUT_KIND: Cmax (nM)
Return type: number; implicit unit nM.

## Input What value of measured Cmax is listed for `Cc1c(N[S+](=O)(O)c2c(Cl)cc(-c3ccnc(N4CCNCC4)c3)cc2Cl)c(CC(C)C)nn1C` ?
## Output 176
